- EXPERIMENTAL_TARGET: UniProt:Q00987
- Sequence (Q00987 whole entry): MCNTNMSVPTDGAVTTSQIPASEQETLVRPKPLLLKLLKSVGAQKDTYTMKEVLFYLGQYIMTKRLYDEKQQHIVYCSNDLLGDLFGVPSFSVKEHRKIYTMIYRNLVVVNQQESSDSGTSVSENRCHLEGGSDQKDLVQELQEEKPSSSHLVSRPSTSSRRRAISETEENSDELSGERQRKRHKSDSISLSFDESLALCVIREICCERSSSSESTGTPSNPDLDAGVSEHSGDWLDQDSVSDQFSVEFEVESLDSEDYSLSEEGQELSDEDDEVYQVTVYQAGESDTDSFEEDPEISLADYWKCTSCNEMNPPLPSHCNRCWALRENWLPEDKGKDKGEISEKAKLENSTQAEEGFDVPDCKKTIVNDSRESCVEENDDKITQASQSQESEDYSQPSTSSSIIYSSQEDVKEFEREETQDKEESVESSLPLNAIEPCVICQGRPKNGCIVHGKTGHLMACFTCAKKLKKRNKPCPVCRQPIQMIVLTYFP
READOUT_LABEL: IC50 (µM)

[
  {
    "MOL": "NCCc1c2c(c3c4c(c5ccccc5nc14)C=CN3)OCS2",
    "EXPERIMENTAL_TARGET": "UniProt:Q00987",
    "READOUT_NUMBER": 58.6
  }
]

Values were extracted from BindingDB's records for doi:10.1016/j.bmc.2008.10.024.
